Data credit: PubChem BioAssay (EPA / NIEHS)

# run.description: CCTE_Simmons_CellTiterGLO_HEK293T: Viability Assessment in CCTE's Assays for Thyroperoxidase (TPO) Inhibition, Simmons Lab (AID 2283665)
Inconclusive results are not listed. Activity calls are given as the source filed them. How the source made its calls: active means hit-call score of the fitted dose curve at least 0.9, where 1 is the maximum; inconclusive means response in the unintended direction; inactive means score below 0.9.
Response enum: active, inactive

compound: CCOP(=S)(OCC)Oc1nc(Cl)n(C(C)C)n1
assigned.category: inactive

Check the results log: what was the call for CCN(CC)C(=O)C(C)Oc1cccc2ccccc12 (stereo not drawn) ?
active

Check the results log: what was the call for OC(c1ccc(Cl)cc1)(c1ccc(Cl)cc1)C(Cl)(Cl)Cl ?
active

---

# Read-out: Lipoprotein lipase (LPL), LPL (gene 4023)
# run.description: LTEA_HepaRG_LPL: Life Technologies and Expression Analysis (LTEA) Assay for Lipoprotein lipase (LPL) using HepaRG (AID 2283515)
# test.parameters: mRNA level, 48 h; actives raise or lower the signal
Active and inactive are the calls of the source. How the source made its calls: active means hit-call score of the fitted dose curve at least 0.9, where 1 is the maximum; inactive means score below 0.9.
Response enum: Yes (active), No (inactive)

molecule: CCSC(=O)N1CCCCCC1
assigned.category: No

molecule: COP(=S)(OC)SCn1nnc2ccccc2c1=O
assigned.category: No

molecule: CC(C)(C)C(=O)C(Oc1ccc(Cl)cc1)n1cncn1 (configuration not stated)
assigned.category: No

molecule: CCNC(=O)NC(=O)C(C#N)=NOC
assigned.category: No

molecule: CCOC(=O)C(C)OC(=O)c1cc(Oc2ccc(C(F)(F)F)cc2Cl)ccc1[N+](=O)[O-] (configuration not stated)
assigned.category: No

Check the results log: what was the call for C=CCOC(=O)C(C)(C)OC(=O)c1cc(-n2c(=O)cc(C(F)(F)F)n(C)c2=O)ccc1Cl ?
No

Check the results log: what was the call for CCN(CC)C(=O)C(C)Oc1cccc2ccccc12 (configuration not stated) ?
No

---

# run.description: ATG_SREBP_CIS: Attagene CIS-FACTORIAL HepG2 Assay for human Sterol Regulatory Element Binding (SREBP) (AID 2282962)
# test.parameters: HepG2 Attagene cis-factorial SREBP reporter, mRNA; actives raise or lower the signal
Active and inactive are the calls of the source. The calls were made as follows: active = hit-call score of the fitted dose curve at least 0.9, where 1 is the maximum; inactive = score below 0.9.
readout: AC50

compound: Nc1c(Cl)c(F)nc(OCC(=O)O)c1Cl
AC50: inactive
--
compound: CO/N=C(/C1=NOCCO1)c1ccccc1Oc1ncnc(Oc2ccccc2Cl)c1F
AC50: 1.25 µM (active)
--
compound: Cc1c(COC(=O)[C@@H]2[C@H](/C=C(\Cl)C(F)(F)F)C2(C)C)cccc1-c1ccccc1
AC50: inactive
--
compound: CCCC(=NOCC)C1=C(O)CC(CC(C)SCC)CC1=O (stereo not given)
AC50: inactive

Item under review: O=P(O)(O)CCCl . Reported AC50?
inactive

Item under review: CC(C)Nc1nc(Cl)nc(NC(C)C)n1 . Reported AC50?
inactive

Item under review: CC1(C)C(C=C(Cl)Cl)C1C(=O)OC(C#N)c1cccc(Oc2ccccc2)c1 (stereo not given) . Reported AC50?
inactive

---

# Read-out: Potassium channel subfamily K member 1 (KCNK1), KCNK1 (gene 3775)
# run.description: LTEA_HepaRG_KCNK1: Life Technologies and Expression Analysis (LTEA) Assay for Potassium channel subfamily K member 1 (KCNK1) using HepaRG (AID 2283511)
# test.parameters: mRNA level, 48 h; actives raise or lower the signal
Calls of active or inactive are those of the source. Rule for the calls: active = hit-call score of the fitted dose curve at least 0.9, where 1 is the maximum; inactive = score below 0.9.
Response enum: T for active, F for inactive

compound: CC(C)=CC1C(C(=O)OCc2coc(Cc3ccccc3)c2)C1(C)C (configuration not stated)
assigned.category: F
//
compound: Nc1c(Cl)c(Cl)nc(C(=O)O)c1Cl
assigned.category: F
//
compound: COCC(=O)N(c1c(C)cccc1C)C(C)C(=O)OC (configuration not stated)
assigned.category: F

Next:
Check the results log: what was the call for N#CN=C1SCCN1Cc1ccc(Cl)nc1 ?
F
